# System: HIV-IIIb IN T174I DE
# ASSAY_REMARKS: Antiviral assay in MT4 cells, HIV-IIIb IN T174I DE virus (from dose escalation passaging)
# Type: cell-based, HIV-1
# SETTINGS: Human immunodeficiency virus 1, IIIB, MT4, 120 h, read-out: T174I DE EC50, MT4 cells, HIV-IIIb IN T174I DE (dose escalation), 5 days, CellTiter-Glo
METRIC_NAME: EC50 (nM)
Give the number; nM is assumed, so skip it.

Solved cases below.
[
  {
    "COMPOUND_STRUCTURE": "Cc1cc2nc(-c3ccc4c(n3)c(C3CCN([C@H]5C[C@@H](O)C5)CC3)nn4C)sc2c(-c2ccc(Cl)cc2)c1[C@H](OC(C)(C)C)C(=O)O",
    "VALUE_OBSERVED": 391
  },
  {
    "COMPOUND_STRUCTURE": "Cc1cc2nc(-c3ccc4c(c3)c(N3CCN(C)C3=O)nn4C)sc2c(-c2ccc(Cl)cc2)c1[C@H](OC(C)(C)C)C(=O)O",
    "VALUE_OBSERVED": 2280
  }
]

Problem: Reported EC50, compound CCN1CCN(c2nn(C)c3ccc(-c4nc5cc(C)c([C@H](OC(C)(C)C)C(=O)O)c(-c6ccc(Cl)cc6)c5s4)cc23)C(=O)C1 : ____
Solution: 2000

---

# Test system: HIV-IIIb IN T174I BT
# ASSAY_REMARKS: Antiviral assay in MT4 cells, HIV-IIIb IN T174I BT virus (from viral breakthrough)
# Assay type: cell-based, HIV-1
# SETTINGS: Human immunodeficiency virus 1, IIIB, MT4, 120 h, read-out: T174I BT EC50, MT4 cells, HIV-IIIb IN T174I BT (viral breakthrough), 5 days, CellTiter-Glo
METRIC_NAME: pEC50
Kindly note that pEC50 refers to -log10 of the concentration in mol/L and answer with the value alone.

Problem: pEC50 lookup needed for Cc1cc2nc(-c3ccc4c(c3)c(C3CCN(C5CN(C(=O)C6CC6)C5)CC3)nn4C)sc2c(-c2ccc(Cl)cc2)c1[C@H](OC(C)(C)C)C(=O)O , thanks.
Solution: 6.76

Problem: Please look up its pEC50: Cc1cc2nc(-c3ccc4c(c3)c(N3CCN(C)C3=O)nn4C)sc2c(-c2ccc(Cl)cc2)c1[C@H](OC(C)(C)C)C(=O)O
Solution: 5.82

Problem: Give its pEC50 value. Item: Cc1cc2nc(-c3ccc4c(c3)c(C3CCN(C5CCOC5)CC3)nn4C)sc2c(-c2ccc(Cl)cc2)c1[C@H](OC(C)(C)C)C(=O)O (stereo in doubt) [Compound 26]
Solution: 6.89

Problem: Bench note: what pEC50 did Cc1cc2nc(-c3ccc4c(c3)c(N3CCN5C(=O)COC[C@@H]5C3)nn4C)sc2c(-c2ccc(Cl)cc2)c1[C@H](OC(C)(C)C)C(=O)O show?
Solution: 6.43

---

# ASSAY_REMARKS: in vitro
# SETTINGS: human, microsomes
METRIC_NAME: half-life (h)
Response body: numeric value in h, unit text excluded.

Problem: Can you look up the measured half-life of Cc1cc2nc(-c3ccc4c(c3)c(C3CCN(C5CC5)CC3)nn4C)sc2c(-c2ccc(Cl)cc2)c1[C@H](OC(C)(C)C)C(=O)O [Compound 128] for me?
Solution: 4.03

---

# System: HIV-IIIb (wildtype)
# ASSAY_REMARKS: Antiviral assay in MT4 cells, HIV-IIIb wildtype
# Format: cell-based, HIV-1
# SETTINGS: Human immunodeficiency virus 1, IIIB, MT4, 120 h, read-out: WT EC50
pEC50: −log10 of the molar value.
Mark condition met for reported pEC50 of 8 or greater; mark condition not met for anything smaller.

Solved entries:
[
  {
    "COMPOUND_STRUCTURE": "Cc1cc2nc(-c3ccc4c(c3)c(C3CCN([C@H]5CCN(C)C5)CC3)nn4C)sc2c(-c2ccc(Cl)cc2)c1[C@H](OC(C)(C)C)C(=O)O",
    "TEST_SYSTEM": "HIV-IIIb (wildtype)",
    "QUALITATIVE_LABEL": "condition not met"
  },
  {
    "COMPOUND_STRUCTURE": "Cc1cc2nc(-c3ccc4c(n3)c(C3CCN([C@H]5CCN(C)C5)CC3)nn4C)sc2c(-c2ccc(Cl)cc2)c1[C@H](OC(C)(C)C)C(=O)O",
    "TEST_SYSTEM": "HIV-IIIb (wildtype)",
    "QUALITATIVE_LABEL": "condition met"
  },
  {
    "COMPOUND_STRUCTURE": "Cc1cc2nc(-c3ccc4c(c3)c(C3CCN(C5CN(C(=O)C6CC6)C5)CC3)nn4C)sc2c(-c2ccc(Cl)cc2)c1[C@H](OC(C)(C)C)C(=O)O",
    "TEST_SYSTEM": "HIV-IIIb (wildtype)",
    "QUALITATIVE_LABEL": "condition not met"
  },
  {
    "COMPOUND_STRUCTURE": "COC(=O)N1CC[C@@H](N2CCC(c3nn(C)c4ccc(-c5nc6cc(C)c([C@H](OC(C)(C)C)C(=O)O)c(-c7ccc(Cl)cc7)c6s5)cc34)CC2)C1",
    "TEST_SYSTEM": "HIV-IIIb (wildtype)",
    "QUALITATIVE_LABEL": "condition met"
  },
  {
    "COMPOUND_STRUCTURE": "Cc1cc2nc(-c3ccc4c(c3)c(C3CCN(C5CN(C(=O)OC(C)(C)C)C5)CC3)nn4C)sc2c(-c2ccc(Cl)cc2)c1[C@H](OC(C)(C)C)C(=O)O",
    "TEST_SYSTEM": "HIV-IIIb (wildtype)",
    "QUALITATIVE_LABEL": "condition not met"
  }
]

Now take the following molecule into account.
Problem: Decide: is the reported value of pEC50 for [2H]C([2H])([2H])n1nc(C2CCN(C3CN(C(=O)OC)C3)CC2)c2nc(-c3nc4cc(C)c([C@H](OC(C)(C)C)C(=O)O)c(-c5ccc(Cl)cc5)c4s3)ccc21 equal to or greater than 8?
Solution: condition met

---

# System: HIV-IIIb IN T174I DE
# ASSAY_REMARKS: Antiviral assay in MT4 cells, HIV-IIIb IN T174I DE virus (from dose escalation passaging)
# Assay type: cell-based, HIV-1
# SETTINGS: Human immunodeficiency virus 1, IIIB, MT4, 120 h, read-out: T174I DE EC50, MT4 cells, HIV-IIIb IN T174I DE (dose escalation), 5 days, CellTiter-Glo
EC50 less than 2000 nM is label 1; EC50 greater than or equal to 2000 nM is label 0.

[
  {
    "MOLECULE": "Cc1cc2nc(-c3ccc4c(c3)c(C3CCN(C5COC5)CC3)nn4C)sc2c(-c2ccc(Cl)cc2)c1[C@H](OC(C)(C)C)C(=O)O [Compound 1]",
    "TEST_SYSTEM": "HIV-IIIb IN T174I DE",
    "QUALITATIVE_LABEL": "label 1"
  },
  {
    "MOLECULE": "Cc1cc2nc(-c3ccc4c(c3)c(C3CCN(C(=O)[C@H]5CCCO5)CC3)nn4C)sc2c(-c2ccc(Cl)cc2)c1[C@H](OC(C)(C)C)C(=O)O [Compound 9]",
    "TEST_SYSTEM": "HIV-IIIb IN T174I DE",
    "QUALITATIVE_LABEL": "label 1"
  },
  {
    "MOLECULE": "Cc1cc2nc(-c3ccc4c(c3)c(C3=CCOCC3)nn4C)sc2c(-c2ccc(Cl)cc2)c1[C@H](OC(C)(C)C)C(=O)O [Compound 18]",
    "TEST_SYSTEM": "HIV-IIIb IN T174I DE",
    "QUALITATIVE_LABEL": "label 0"
  },
  {
    "MOLECULE": "Cc1cc2nc(-c3ccc4c(c3)c(C3CN(C(C)C)C3)nn4C)sc2c(-c2ccc(Cl)cc2)c1[C@H](OC1CC1)C(=O)O [Compound 55]",
    "TEST_SYSTEM": "HIV-IIIb IN T174I DE",
    "QUALITATIVE_LABEL": "label 1"
  },
  {
    "MOLECULE": "Cc1cc2nc(-c3ccc4c(c3)c(C3CCN(C5COC5)CC3)nn4CC(F)(F)F)sc2c(-c2ccc(Cl)cc2)c1[C@H](OC(C)(C)C)C(=O)O [Compound 41]",
    "TEST_SYSTEM": "HIV-IIIb IN T174I DE",
    "QUALITATIVE_LABEL": "label 0"
  }
]

Problem: Is 2000 nM strictly greater than the molecule's reported EC50? molecule: Cc1cc2nc(-c3ccc4c(c3)c(C3CCN(C(C)C)CC3)nn4C)sc2c(-c2ccc(Cl)cc2)c1[C@H](OC(C)(C)C)C(=O)O [Compound 127]
Solution: label 1

Problem: Determine whether this molecule shows EC50 lower than 2000 nM (ties excluded): Cc1cc2nc(-c3ccc4c(c3)c(C3CN(C5COC5)C3)nn4C)sc2c(-c2ccc(Cl)cc2)c1[C@H](OC(C)(C)C)C(=O)O [Compound 59]
Solution: label 1

Problem: API: query returns whether the molecule falls strictly under 2000 nM in EC50. Query: CCC(=O)N1CC(N2CCC(c3nn(C)c4ccc(-c5nc6cc(C)c([C@H](OC(C)(C)C)C(=O)O)c(-c7ccc(Cl)cc7)c6s5)cc34)CC2)C1 [Compound 7]
Solution: label 1

Problem: Please let me know if COC(=O)N1CC[C@@H]1CN1CCC(c2nn(C)c3ccc(-c4nc5cc(C)c([C@H](OC(C)(C)C)C(=O)O)c(-c6ccc(Cl)cc6)c5s4)cc23)CC1 [Compound 5] shows EC50 below 2000 nM.
Solution: label 1

Problem: Does this molecule meet the criterion EC50 < 2000 nM? Cc1cc2nc(-c3ccc4c(c3)c(N3CCN(C5COC5)CC3)nn4C)sc2c(-c2ccc(Cl)cc2)c1[C@H](OC(C)(C)C)C(=O)O [Compound 104]
Solution: label 1

Problem: In plain terms, does Cc1cc2nc(-c3cnc4c(c3)c(N3CCN(C(C)C)CC3)nn4C)sc2c(-c2ccc(Cl)cc2)c1[C@H](OC(C)(C)C)C(=O)O [Compound 111] come in under 2000 nM for EC50?
Solution: label 0

Problem: Say whether its EC50 is strictly beneath 2000 nM. Entry: COCCN1CCCC(c2nn(C)c3ccc(-c4nc5cc(C)c([C@H](OC(C)(C)C)C(=O)O)c(-c6ccc(Cl)cc6)c5s4)cc23)C1 (stereo partly drawn) [Compound 77]
Solution: label 0

meta.source: patent US10800772B2
